Molecular target: WT HIV-1 RT (Human immunodeficiency virus type 1 group M subtype B, UniProt P03366)
Test: HIV-1 RT inhibition assay
Format: biochemical
The following compounds are listed with their measured IC50 values.
Measured parameter: IC50 (nM)

[[record]]
compound = "Cc1cc(-c2ccc(C#N)cc2)cc(C)c1Oc1nc(Nc2ccc(C#N)cc2)nc(NC2CCOCC2)n1"
measure_unit = "nM"
result = 263

[[record]]
compound = "Cc1cc(-c2ccc(C#N)cc2)cc(C)c1Oc1nc(NCC2CCOC2)nc(Nc2ccc(C#N)cc2)n1 (stereo not shown)"
measure_unit = "nM"
result = 216

[[record]]
compound = "Cc1cc(-c2ccc(C#N)cc2)cc(C)c1Nc1nc(NCC2CCOCC2)nc(Nc2ccc(C#N)cc2)n1"
measure_unit = "nM"
result = 241

[[record]]
compound = "Cc1cc(-c2ccc(C#N)cc2)cc(C)c1Oc1nc(Nc2ccc(C#N)cc2)nc(N2CCC(O)CC2)n1"
measure_unit = "nM"
result = 282

[[record]]
compound = "Cc1cc(-c2ccc(C#N)cc2)cc(C)c1Oc1nc(Nc2ccc(C#N)cc2)nc(N2CCCC2CO)n1 (stereo not shown)"
measure_unit = "nM"
result = 280

[[record]]
compound = "Cc1cc(-c2ccc(C#N)cc2)cc(C)c1Nc1nc(NCCN2CCOCC2)nc(Nc2ccc(C#N)cc2)n1"
measure_unit = "nM"
result = 176

[[record]]
compound = "COC(=O)[C@@H]1CCCN1c1nc(Nc2ccc(C#N)cc2)nc(Oc2c(C)cc(-c3ccc(C#N)cc3)cc2C)n1"
measure_unit = "nM"
result = 273

